# EXPERIMENTAL_TARGET: T1, human carcinoembryonic antigen (CEA), membrane-bound on cells (human, UniProt P06731 35-685)
# T1 construct: whole, on cells; also called CEACAM-5; CD66e
# T1 sequence (looked up): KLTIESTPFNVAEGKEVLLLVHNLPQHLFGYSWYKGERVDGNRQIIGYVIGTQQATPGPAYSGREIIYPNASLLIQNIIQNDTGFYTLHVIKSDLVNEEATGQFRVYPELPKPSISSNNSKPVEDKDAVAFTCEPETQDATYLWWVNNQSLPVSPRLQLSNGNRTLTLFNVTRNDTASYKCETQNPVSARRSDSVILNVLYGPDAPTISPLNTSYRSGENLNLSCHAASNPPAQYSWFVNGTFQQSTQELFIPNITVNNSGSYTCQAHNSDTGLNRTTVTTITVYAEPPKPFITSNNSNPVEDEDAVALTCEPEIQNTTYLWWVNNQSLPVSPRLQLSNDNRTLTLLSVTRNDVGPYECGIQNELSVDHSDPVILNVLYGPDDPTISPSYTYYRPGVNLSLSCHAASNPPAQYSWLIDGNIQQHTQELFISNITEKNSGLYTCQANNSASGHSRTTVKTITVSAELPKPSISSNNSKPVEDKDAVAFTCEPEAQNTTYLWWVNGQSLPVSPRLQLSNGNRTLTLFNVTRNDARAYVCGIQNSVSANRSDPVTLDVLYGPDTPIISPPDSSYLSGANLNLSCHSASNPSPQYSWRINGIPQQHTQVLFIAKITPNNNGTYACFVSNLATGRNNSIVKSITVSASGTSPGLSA
# MEASUREMENT_PROTOCOL: FACS on MKN45 cells
REPORTED_PROPERTY: EC50 (read off the curve)

anti-CEA antibody with heavy chain CH1A1C and light chain 2F1 (antibody, V domains shown) VH: QVQLVQSGPELKKPGASVKVSCKASGYTFTEFGMNWVRQAPGQGLEWMGWINTKTGEATYVEEFKGRVTMTTDTSTSTAYMELRSLRSDDTAVYYCARWDFYDYVEAMDYWGQGTTVTVSS VL: DIQMTQSPSSLSASVGDRVTITCKASAAVGTYVAWYQQKPGKAPKLLIYSASYRKRGVPSRFSGSGSGTDFTLTISSLQPEDFATYYCHQYYTYPLFTFGQGTKLEIKR    ~1 mg/L
anti-CEA antibody with heavy chain CH1A1 and light chain 2F1 (antibody, V domains shown, CH1A with M69F/T71L double point mutation; also called precursor clone CH1A1) VH: QVQLVQSGAEVKKPGASVKVSCKASGYTFTEFGMNWVRQAPGQGLEWMGWINTKTGEATYVEEFKGRVTFTLDTSTSTAYMELRSLRSDDTAVYYCARWDFYDYVEAMDYWGQGTTVTVSS VL: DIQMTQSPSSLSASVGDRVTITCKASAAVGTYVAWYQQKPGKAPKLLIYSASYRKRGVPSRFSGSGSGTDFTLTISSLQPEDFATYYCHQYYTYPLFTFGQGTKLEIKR    ~1 mg/L

# input for lookup
Item anti-CEA antibody with heavy chain CH1A1A and light chain 2F1 (antibody, V domains shown) VH: QVQLVQSGAEVKKPGASVKVSCKASGYTFTEFGMNWVRQAPGQGLEWMGWINTKTGEATYVEEFKGRVTFTTDTSTSTAYMELRSLRSDDTAVYYCARWDFYDYVEAMDYWGQGTTVTVSS VL: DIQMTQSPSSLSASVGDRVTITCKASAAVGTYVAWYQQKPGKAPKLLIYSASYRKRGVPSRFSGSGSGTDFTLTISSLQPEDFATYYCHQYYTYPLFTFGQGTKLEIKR : provide EC50 (read off the curve) ~1 mg/L
